- Tested on: methicillin-resistant S. aureus clinical isolate SA 3202
- method.notes: In vitro antibacterial susceptibility testing, broth dilution micro-method (MIC)
- setup.conditions: Staphylococcus aureus, MRSA, 24 h, read-out: MIC MRSA 3202, clinical isolate MRSA 3202, 37 °C, MH broth
Please respond with reported MIC for every item in the list.

Would you kindly share the measured MIC for CCC(C)Oc1cccc(NC(=O)c2cc3ccccc3cc2O)c1 (stereo not drawn) [Compound 8b] ? 763 µM

Which MIC is listed for CCOc1ccc(NC(=O)c2cc3ccccc3cc2O)cc1 [Compound 4c] ? 832 µM

Please look up its MIC: CCCOc1ccccc1NC(=O)c1cc2ccccc2cc1O [Compound 5a] 12 µM

Give the measured MIC of CCC(C)Oc1ccccc1NC(=O)c1cc2ccccc2cc1O (stereo not drawn) [Compound 8a] . 12 µM

// MIC lookup, key: CCOc1ccccc1NC(=O)c1cc2ccccc2cc1O [Compound 4a] 832 µM

Name the recorded MIC for CCCCOc1ccc(NC(=O)c2cc3ccccc3cc2O)cc1 [Compound 6c] . 763 µM

Endpoint output: MIC of CCC(C)Oc1ccc(NC(=O)c2cc3ccccc3cc2O)cc1 (stereo not drawn) [Compound 8c] . Value? 763 µM

I would be grateful if you could share the reported MIC for CC1(C)S[C@@H]2[C@H](NC(=O)[C@H](N)c3ccccc3)C(=O)N2[C@H]1C(=O)O [APC, ampicillin, reference compound] . > 46 µM

Look up MIC for this compound: CCCOc1ccc(NC(=O)c2cc3ccccc3cc2O)cc1 [Compound 5c] 796 µM

Each recorded value in this set is attributed to paper PMC6272341.
